FYI, the data here is from ChEMBL document CHEMBL1133708.

Biological target: UniProtKB P80147
Experiment: Compound was evaluated for the competitive inhibition of Gamma-amino-N-butyrate transaminase
pKi: −log10 of the molar value.
pKi overview
measured property: pKi

{"given smiles": "N[C@H]1[C@H](O)[C@@H](C(=O)O)C[C@@H]1Br", "endpoint value": 2.23}
{"given smiles": "N[C@H]1C[C@@H](C(=O)O)C[C@@H]1F", "endpoint value": 4.92}
{"given smiles": "N[C@H]1[C@H](Br)[C@@H](C(=O)O)C[C@@H]1O", "endpoint value": 1.89}
{"given smiles": "N[C@H]1[C@H](Br)[C@@H](C(=O)O)C[C@@H]1F", "endpoint value": 2.33}
{"given smiles": "N[C@@H]1CC[C@H](C(=O)O)[C@H]1Br", "endpoint value": 1.92}
{"given smiles": "N[C@H]1[C@@H](F)[C@@H](C(=O)O)C[C@@H]1Br", "endpoint value": 2.80}
{"given smiles": "N[C@H]1C[C@@H](C(=O)O)C[C@@H]1Br", "endpoint value": 2.44}
{"given smiles": "N[C@H]1[C@H](Br)[C@@H](C(=O)O)C[C@@H]1Br", "endpoint value": 2.38}

* * *

Target: 4-aminobutyrate aminotransferase, mitochondrial (Sus scrofa)
Test: Compound was evaluated for the kinetic constant for the inhibition of Gamma-amino-N-butyrate transaminase

{"compound": "NC(CF)CCC(=O)O (stereo not given)", "Ki": "0.4 mM"}
{"compound": "N[C@H]1[C@@H](F)[C@@H](C(=O)O)C[C@@H]1Br", "Ki": "3.14 mM"}
{"compound": "N[C@H]1C[C@@H](C(=O)O)C[C@@H]1F", "Ki": "0.43 mM"}
{"compound": "N[C@H]1C[C@@H](C(=O)O)C[C@@H]1Br", "Ki": "16 mM"}
{"compound": "N[C@H]1[C@H](Br)[C@@H](C(=O)O)C[C@@H]1Br", "Ki": "49 mM"}

* * *

Target: 4-aminobutyrate aminotransferase, mitochondrial (Sus scrofa) (UniProt P80147)
Sequence (P80147 whole entry): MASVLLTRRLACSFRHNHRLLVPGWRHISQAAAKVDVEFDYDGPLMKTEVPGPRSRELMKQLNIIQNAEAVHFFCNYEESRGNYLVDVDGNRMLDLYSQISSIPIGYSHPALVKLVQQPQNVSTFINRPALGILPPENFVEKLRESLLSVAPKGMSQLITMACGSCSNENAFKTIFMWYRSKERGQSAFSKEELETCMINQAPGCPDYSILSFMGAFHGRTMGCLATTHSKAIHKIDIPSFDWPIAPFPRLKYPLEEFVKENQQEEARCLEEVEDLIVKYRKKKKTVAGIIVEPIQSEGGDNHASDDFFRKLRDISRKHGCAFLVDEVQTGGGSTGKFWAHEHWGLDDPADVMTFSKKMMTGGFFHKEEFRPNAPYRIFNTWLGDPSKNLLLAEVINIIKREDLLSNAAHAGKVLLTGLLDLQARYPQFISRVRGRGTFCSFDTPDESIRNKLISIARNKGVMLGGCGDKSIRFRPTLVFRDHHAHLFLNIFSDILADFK
Assay: Compound was evaluated for the kinetic constant for the inactivation of Gamma-amino-N-butyrate transaminase
# if measured kinact < 0.2 min⁻¹: y  # else: n

{"compound": "N[C@H]1[C@H](Br)[C@@H](C(=O)O)C[C@@H]1Br", "cat": "y"}
{"compound": "NC(CF)CCC(=O)O (stereo not given)", "cat": "n"}
{"compound": "N[C@H]1[C@@H](F)[C@@H](C(=O)O)C[C@@H]1Br", "cat": "y"}
{"compound": "N[C@H]1C[C@@H](C(=O)O)C[C@@H]1Br", "cat": "y"}
{"compound": "N[C@H]1C[C@@H](C(=O)O)C[C@@H]1F", "cat": "y"}

* * *

# key: entry, value: K inact/Ki
Test: Selectivity ratio of Kinact/KI

{"given smiles": "N[C@H]1C[C@@H](C(=O)O)C[C@@H]1Br", "K inact/Ki": "0.0217 M⁻¹ s⁻¹"}
{"given smiles": "N[C@H]1[C@H](Br)[C@@H](C(=O)O)C[C@@H]1Br", "K inact/Ki": "0.0617 M⁻¹ s⁻¹"}
{"given smiles": "N[C@H]1C[C@@H](C(=O)O)C[C@@H]1F", "K inact/Ki": "1.17 M⁻¹ s⁻¹"}
{"given smiles": "N[C@H]1[C@@H](F)[C@@H](C(=O)O)C[C@@H]1Br", "K inact/Ki": "0.122 M⁻¹ s⁻¹"}
